Test System: UniProtKB P21554
Experimental Protocol: Positive allosteric modulation of human CB1 receptor expressed in CHOK1 cells assessed as increase in CP55940-induced beta-arrestin recruitment preincubated for 30 mins followed by CP55940 addition and measured after 90 to 180 mins by PathHunter assay
Assay type: cell-based
Readout Name: EC50 (nM)
Provide only the numeric value, understood in nM.

Lookup: EC50 / UniProtKB P21554 / CC(=O)c1ccc2c(C(CC(F)(F)F)c3cccs3)c(-c3ccccc3)[nH]c2c1 (racemic) 158

UniProtKB P21554 / EC50 / FC(F)(F)CC(c1cccs1)c1c(-c2ccccc2)[nH]c2cc(C(F)(F)F)ccc12 (racemic) : value? 322

Please tell me: EC50 of N#Cc1ccc2c(C(C[N+](=O)[O-])c3cccs3)c(-c3ccccc3)[nH]c2c1 (single isomer, unassigned; (-)) , system UniProtKB P21554? 664

Quick check: EC50 on UniProtKB P21554, item N#Cc1ccc2c([C@H](CC(F)(F)F)c3cccs3)c(-c3ccccc3)[nH]c2c1 ? 342

---

Kindly supply the reported Activity values for the records listed here.
Test System: Cannabinoid receptor 1 (Homo sapiens, UniProt P21554)
Sequence (P21554 whole entry): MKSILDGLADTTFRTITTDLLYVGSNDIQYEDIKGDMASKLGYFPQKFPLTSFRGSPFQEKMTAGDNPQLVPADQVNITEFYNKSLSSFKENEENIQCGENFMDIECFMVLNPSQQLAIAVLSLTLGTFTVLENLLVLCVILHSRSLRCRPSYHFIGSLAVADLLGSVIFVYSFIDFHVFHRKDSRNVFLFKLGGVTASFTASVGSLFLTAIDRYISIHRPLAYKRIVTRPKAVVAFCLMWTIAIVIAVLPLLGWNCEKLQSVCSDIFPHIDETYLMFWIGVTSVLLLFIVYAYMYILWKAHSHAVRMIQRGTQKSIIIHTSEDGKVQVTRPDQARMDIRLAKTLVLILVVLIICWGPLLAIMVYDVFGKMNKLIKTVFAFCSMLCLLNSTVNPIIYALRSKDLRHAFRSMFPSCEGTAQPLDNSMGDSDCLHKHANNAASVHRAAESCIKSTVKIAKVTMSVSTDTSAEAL
Experimental Protocol: Positive allosteric modulation of human CB1 receptor expressed in CHOK1 cells assessed as increase in CP55940-induced beta-arrestin recruitment at 1 uM preincubated for 30 mins followed by CP55940 addition and measured after 90 to 180 mins by PathHunter assay relative to CP55940
Format: cell-based

Recorded Activity for O=[N+]([O-])CC(c1cccs1)c1c(-c2ccccc2)[nH]c2ccc([N+](=O)[O-])cc12 (racemic) , please? < 50%

Name the reported Activity value associated with the compound Cc1ccc2[nH]c(-c3ccccc3)c(C(CC(F)(F)F)c3ccccc3)c2c1 (racemic) < 50%

Report Activity for Cc1ccc2c(C(C[N+](=O)[O-])c3cccs3)c(-c3ccc(F)cc3)[nH]c2c1 (racemic) please. < 50%

Requested read-out: Activity. Entry: OCc1ccc2c(C(CC(F)(F)F)c3cccs3)c(-c3ccccc3)[nH]c2c1 (racemic) < 50%

Entry N#Cc1ccc2[nH]c(-c3ccccc3)c(C(C[N+](=O)[O-])c3cccs3)c2c1 (racemic) : reported Activity = ? < 50%

# get_value(readout='Activity', item= CC(C)CN(C(=O)C(F)(F)F)c1c(-c2ccccc2)[nH]c2ccccc12 ) 50%

Requested read-out: Activity. Entry: N#CC(C#N)C(c1ccccc1)c1c(-c2ccccc2)[nH]c2ccccc12 (racemic) < 50%

Query: Activity; subject: O=C(N(CC1CC1)c1c(-c2ccccc2)[nH]c2ccccc12)C(F)(F)F 50%

Recorded Activity for N#Cc1cccc(-c2[nH]c3cc(Cl)ccc3c2C(C[N+](=O)[O-])c2cccs2)c1 (racemic) , please? < 50%

---

Provide the recorded t1/2 for the entries that follow.
Experimental Protocol: Half life in human liver microsomes at 3 uM in presence of NADPH by LC-MS/MS analysis
Assay type: ADME, Microsome
Record the value in min, omitting the unit from your answer.

Sample N#CCC(c1ccccc1)c1c(-c2ccccc2)[nH]c2cc(Cl)ccc12 (racemic) — what was its t1/2? 43.2

Endpoint output: t1/2 of FC(F)(F)CC(c1cccs1)c1c(C2CCCC2)[nH]c2cc(C(F)(F)F)ccc12 (racemic) . Value? 47.1

Value lookup for t1/2; key = O=[N+]([O-])CC(c1cccs1)c1c(-c2ccccc2)[nH]c2cc(Cl)ccc12 (racemic) 32.7

Which t1/2 reading was recorded for the compound FC(F)(F)CC(c1cccs1)c1c(-c2ccccc2)[nH]c2cc(C(F)(F)F)ccc12 (racemic) ? 49.7

Using the record for N#Cc1ccc2[nH]c(C3CCCCC3)c(C(C[N+](=O)[O-])c3cccs3)c2c1 (racemic) , report its t1/2. 21.4

t1/2 for O=[N+]([O-])CC(c1cccs1)c1c(-c2ccccc2)[nH]c2cc(C(F)(F)F)ccc12 (racemic) ? 30.7

Can you look up the measured t1/2 of Cc1ccc2c(C(c3cccs3)C(C#N)C#N)c(-c3ccccc3)[nH]c2c1 (racemic) for me? 31.2

Value lookup for t1/2; key = Cc1ccc2c(C(C[N+](=O)[O-])c3cccs3)c(-c3ccc(Cl)cc3)[nH]c2c1 (racemic) 24.2

Any idea what t1/2 was measured for N#Cc1ccc2c([C@@H](CC(F)(F)F)c3cccs3)c(-c3ccccc3)[nH]c2c1 ? 72.3

State the recorded t1/2 for this entry: OC(C(c1ccccc1)c1c(-c2ccccc2)[nH]c2ccccc12)C(F)(F)F (racemic) 39.4

# query: t1/2 of entry Cc1ccc2c(C(C[N+](=O)[O-])c3cccs3)c(-c3ccccc3)[nH]c2c1 (racemic) 41.2

# query: t1/2 of entry N#CC(C#N)C(c1ccccc1)c1c(-c2ccccc2)[nH]c2cc(Cl)ccc12 (racemic) 29.6

Would you mind telling me what t1/2 value was observed for CC(=O)c1ccc2c(C(CC(F)(F)F)c3cccs3)c(-c3ccccc3)[nH]c2c1 (racemic) ? 51.2

Name the reported t1/2 value associated with the compound O=C(O)CC(c1ccccc1)c1c(-c2ccccc2)[nH]c2ccccc12 (racemic) 62.7

Look up t1/2: N#Cc1ccc2[nH]c(-c3ccccc3)c(C(C[N+](=O)[O-])c3cccs3)c2c1 (racemic) 49.4

---

Test System: Cannabinoid receptor 1 (Homo sapiens, UniProt P21554)
Experimental Protocol: Positive allosteric modulation of human CB1 receptor expressed in CHOK1 cells assessed as increase in CP55940-induced beta-arrestin recruitment at 1 uM preincubated for 30 mins followed by CP55940 addition and measured after 90 to 180 mins by PathHunter assay relative to CP55940
Type: cell-based
Readout Name: Activity

Recorded Activity for CS(=O)(=O)c1ccc(-c2[nH]c3cc(Cl)ccc3c2C(C[N+](=O)[O-])c2cccs2)cc1 (racemic) with Cannabinoid receptor 1 (Homo sapiens, UniProt P21554), please? < 50%

API: value(readout= Activity, system= Cannabinoid receptor 1 (Homo sapiens, UniProt P21554), query= O=C(C(c1ccccc1)c1c(-c2ccccc2)[nH]c2ccccc12)C(F)(F)F (racemic) ) 30 to 50%

Request - read-out Activity | tested on Cannabinoid receptor 1 (Homo sapiens, UniProt P21554) | compound COc1cccc(-c2[nH]c3cc(Cl)ccc3c2C(C[N+](=O)[O-])c2cccs2)c1 (racemic) < 50%

Activity of Nc1ccc2c(C(CC(F)(F)F)c3cccs3)c(-c3ccccc3)[nH]c2c1 (racemic) on Cannabinoid receptor 1 (Homo sapiens, UniProt P21554)? < 50%

Form field: Activity recorded for Cc1ccc2[nH]c(-c3ccccc3)c(C(CC(F)(F)F)c3cccs3)c2c1 (racemic) with Cannabinoid receptor 1 (Homo sapiens, UniProt P21554) (enter value) < 50%

Field: Activity (Cannabinoid receptor 1 (Homo sapiens, UniProt P21554)). Entry: N#Cc1ccc(-c2[nH]c3cc(Cl)ccc3c2C(C[N+](=O)[O-])c2cccs2)cc1 (racemic) < 50%

Param readout = Activity; param system = Cannabinoid receptor 1 (Homo sapiens, UniProt P21554); param query = FC(F)(F)CC(c1ccccc1)c1c(-c2ccccc2)[nH]c2ccccc12 (racemic) ; response: value 30 to 50%

Record N#Cc1ccc2[nH]c(C3CCCCC3)c(C(C[N+](=O)[O-])c3cccs3)c2c1 (racemic) : what is its Activity with Cannabinoid receptor 1 (Homo sapiens, UniProt P21554)? < 50%

---

Test System: Cannabinoid receptor 1 (Homo sapiens, UniProt P21554)
Experimental Protocol: Agonist activity at human Gi/Go-coupled CB1 receptor expressed in CHOK1 cells assessed as inhibition of forskolin-stimulated cAMP production measured after 30 mins by Hit-hunter assay relative to CP55940
Assay type: cell-based
Stated Conditions: 0.5 h, read-out: Emax
Exercise: for every item that follows, state its recorded Emax.
State just the number; it will be interpreted in %.

I'd like to know its Emax. The molecule in question is N#Cc1ccc2c(C(C[N+](=O)[O-])c3cccs3)c(-c3ccccc3)[nH]c2c1 (single isomer, unassigned; (+)) 96

Entry N#Cc1ccc2c([C@@H](CC(F)(F)F)c3cccs3)c(-c3ccccc3)[nH]c2c1 : reported Emax = ? 84

Can you look up the measured Emax of Cc1ccc2c(C(C[N+](=O)[O-])c3cccs3)c(-c3ccccc3)[nH]c2c1 (racemic) for me? 94

Report Emax for N#Cc1ccc2c([C@H](CC(F)(F)F)c3cccs3)c(-c3ccccc3)[nH]c2c1 please. 89

---

Experimental Protocol: Half life in rat liver microsomes at 3 uM in presence of NADPH by LC-MS/MS analysis
Format: ADME, Microsome
Would you mind telling me the reported t1/2 of each entry?
Record the value in min, omitting the unit from your answer.

I have this molecule here, N#Cc1ccc2[nH]c(-c3ccccc3)c(C(C[N+](=O)[O-])c3cccs3)c2c1 (racemic) , and I need its recorded t1/2. 8.2

Dear colleague, I am looking for the recorded t1/2 of the following molecule: N#CC(C#N)C(c1ccccc1)c1c(-c2ccccc2)[nH]c2cc(Cl)ccc12 (racemic) 13.5

What does the data say about its t1/2? Entry: CC(=O)c1ccc2c(C(CC(F)(F)F)c3cccs3)c(-c3ccccc3)[nH]c2c1 (racemic) 12.2

So what's the measured t1/2 for this one? FC(F)(F)CC(c1cccs1)c1c(C2CCCC2)[nH]c2cc(C(F)(F)F)ccc12 (racemic) 44.4

State the recorded t1/2 for this entry: Cc1ccc2c(C(C[N+](=O)[O-])c3cccs3)c(-c3ccc(Cl)cc3)[nH]c2c1 (racemic) 9.8

Suppose we examine the molecule FC(F)(F)CC(c1cccs1)c1c(-c2ccccc2)[nH]c2cc(C(F)(F)F)ccc12 (racemic) ; what t1/2 value has been reported? 36.7

Could you tell me which t1/2 is on file for N#CCC(c1ccccc1)c1c(-c2ccccc2)[nH]c2cc(Cl)ccc12 (racemic) ? 22.5

Find the recorded t1/2 belonging to N#Cc1ccc2[nH]c(C3CCCCC3)c(C(C[N+](=O)[O-])c3cccs3)c2c1 (racemic) and report it. 3.8

Item under review: O=[N+]([O-])CC(c1cccs1)c1c(-c2ccccc2)[nH]c2cc(C(F)(F)F)ccc12 (racemic) . Reported t1/2? 15.6

Reported t1/2 for Cc1ccc2c(C(C[N+](=O)[O-])c3cccs3)c(-c3ccccc3)[nH]c2c1 (racemic) : what is it? 6.4

Entry under review: OC(C(c1ccccc1)c1c(-c2ccccc2)[nH]c2ccccc12)C(F)(F)F (racemic) . Reported t1/2? 18.2

Given the molecule N#Cc1ccc2c([C@@H](CC(F)(F)F)c3cccs3)c(-c3ccccc3)[nH]c2c1 , what is its reported t1/2? 34.9

Data request, read-out t1/2, for O=[N+]([O-])CC(c1cccs1)c1c(-c2ccccc2)[nH]c2cc(Cl)ccc12 (racemic) 13.8

Record request: t1/2 value, item Cc1ccc2c(C(c3cccs3)C(C#N)C#N)c(-c3ccccc3)[nH]c2c1 (racemic) 4.9

Values were extracted from ChEMBL document CHEMBL4350967.
